Assay target: SARS-CoV-2 nsp12/7/8 (RTC) complex (Severe acute respiratory syndrome coronavirus 2)
Measurement description: biochemical
Format: biochemical
Condition info: read-out: IC50: compound concentration required to inhibit by 50% the SARS-CoV-2 RTC enzymatic activity
Parameter pIC50: see the listing below.
Formally, pIC50 is defined as -log10 of the concentration c, with c in mol/L.

{"Molecule": "Cc1cc2c(C(C)C)c(O)c(O)c(C=NCc3ccncc3)c2c(O)c1-c1c(C)cc2c(C(C)C)c(O)c(O)c(C=NCc3ccncc3)c2c1O", "pIC50": 4.79}

Give SARS-CoV-2 nsp12/7/8 (RTC) complex (Severe acute respiratory syndrome coronavirus 2) pIC50 for O=C(O[C@@H]1Cc2c(O)cc(O)cc2O[C@@H]1c1cc(=O)c(O)c2c(O)c(O)cc([C@H]3Oc4cc(O)cc(O)c4C[C@H]3O)c2c1)c1cc(O)c(O)c(O)c1 [Theaflavin 3-gallate]
4.70
